- experimental target: human recombinant adrenergic α1D receptor (Homo sapiens)
- Construct: expressed in transfected cells; host or cells: HEK-293 cells
- Sequence (P25100 whole entry): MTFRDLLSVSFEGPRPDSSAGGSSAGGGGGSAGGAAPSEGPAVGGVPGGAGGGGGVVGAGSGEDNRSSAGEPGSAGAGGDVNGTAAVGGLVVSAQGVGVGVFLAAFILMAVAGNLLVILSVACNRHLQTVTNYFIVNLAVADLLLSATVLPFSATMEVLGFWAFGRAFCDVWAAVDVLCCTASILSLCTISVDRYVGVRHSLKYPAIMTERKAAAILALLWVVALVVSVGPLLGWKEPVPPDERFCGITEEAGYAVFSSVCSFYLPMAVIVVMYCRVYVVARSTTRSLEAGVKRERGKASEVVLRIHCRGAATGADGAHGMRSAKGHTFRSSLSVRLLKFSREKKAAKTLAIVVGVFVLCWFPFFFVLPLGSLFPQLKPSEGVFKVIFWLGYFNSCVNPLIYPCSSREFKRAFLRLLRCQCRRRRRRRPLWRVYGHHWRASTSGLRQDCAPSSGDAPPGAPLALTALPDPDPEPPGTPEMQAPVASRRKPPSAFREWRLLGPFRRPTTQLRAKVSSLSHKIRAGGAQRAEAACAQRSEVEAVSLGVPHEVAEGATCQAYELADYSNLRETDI
- test description: Adrenergic α1D radioligand binding ([3H]Prozosin)
- Set-up: concentration or dose not given beside the values
- conditions: percent inhibition of specific binding
Rule: fulfilled for Inhibition of ligand binding, Adren. alpha1D not less than 40%, not fulfilled for anything less.

>  <test smiles>
CN1CCc2c(c3cc(Cl)ccc3n2CCc2cncc(Cl)c2)C1

>  <answer label>
fulfilled

$$$$
>  <test smiles>
CN1CCc2c(c3cc(Cl)ccc3n2CC(=O)N2CCS(=O)(=O)CC2)C1

>  <answer label>
not fulfilled

$$$$
>  <test smiles>
Cc1ccc2c(c1)c1c(n2CCc2ccccc2)CCNC1

>  <answer label>
fulfilled

$$$$
>  <test smiles>
CN1CCc2c(c3cc(Cl)ccc3n2CCC(=O)N2CCOCC2)C1

>  <answer label>
not fulfilled

$$$$
>  <test smiles>
Cc1ccc2c(c1)c1c(n2CCC2CCCCC2)CCN(C)C1

>  <answer label>
fulfilled

$$$$
>  <test smiles>
Cc1ccc2c(c1)c1c(n2CCc2ccc(F)cc2)CCN(C)C1

>  <answer label>
fulfilled

$$$$
>  <test smiles>
CCN1CCc2c(c3cc(C)ccc3n2Cc2ccccc2)C1

>  <answer label>
not fulfilled

$$$$
>  <test smiles>
CN1CCc2c(c3cc(F)ccc3n2CCc2ccc(F)cc2)C1

>  <answer label>
fulfilled

$$$$

* * *

- experimental target: human recombinant dopamine D2L receptor (Homo sapiens, UniProt P14416)
- Construct: expressed in transfected cells; host or cells: CHO cells
- Sequence (P14416 whole entry): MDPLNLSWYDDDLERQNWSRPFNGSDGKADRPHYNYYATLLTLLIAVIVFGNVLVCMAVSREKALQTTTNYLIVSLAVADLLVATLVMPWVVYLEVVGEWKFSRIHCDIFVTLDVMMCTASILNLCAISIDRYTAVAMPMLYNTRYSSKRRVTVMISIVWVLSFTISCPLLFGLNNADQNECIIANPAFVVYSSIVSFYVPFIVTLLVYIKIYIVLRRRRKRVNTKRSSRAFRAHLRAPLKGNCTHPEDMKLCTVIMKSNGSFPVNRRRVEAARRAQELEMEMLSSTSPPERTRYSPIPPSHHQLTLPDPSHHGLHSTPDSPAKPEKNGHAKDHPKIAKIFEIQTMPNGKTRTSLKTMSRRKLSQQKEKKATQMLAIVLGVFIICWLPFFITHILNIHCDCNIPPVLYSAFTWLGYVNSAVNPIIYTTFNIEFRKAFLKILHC
- test description: Dopamine D2L antagonist activity ([35S]GTPγS binding, SPA)
- Format: biochemical
- conditions: 0.3 uM; two values = assay run twice; read-out: Antagonist Activity As Measured by % Inhibition D2L
measure: inhibition at 0.3 µM (%)

>  <compound>
CN1CCc2c(c3cc(F)ccc3n2CCc2ccc(F)cc2)C1 [Compound 253]

>  <unit descriptor>
%

>  <recorded result>
81

$$$$
>  <compound>
CN1CCc2c(c3cc(Cl)ccc3n2CCc2ccccc2)C1 [Compound 36]

>  <unit descriptor>
%

>  <recorded result>
83

$$$$
>  <compound>
COc1ccc(CCn2c3c(c4cc(C)ccc42)CN(C)CC3)cc1 [Compound 247]

>  <unit descriptor>
%

>  <recorded result>
81

$$$$
>  <compound>
Cc1ccc2c(c1)c1c(n2CCc2ccc(C(F)(F)F)nc2)CCN(C)C1 [Compound 68]

>  <unit descriptor>
%

>  <recorded result>
8

$$$$

* * *

In this section we review reported inhibition at 1 µM values for a set of compounds.
- experimental target: human recombinant adrenergic α2B receptor (Homo sapiens)
- Construct: expressed in transfected cells; host or cells: CHO-K1 cells
- Sequence (P18089 1-450): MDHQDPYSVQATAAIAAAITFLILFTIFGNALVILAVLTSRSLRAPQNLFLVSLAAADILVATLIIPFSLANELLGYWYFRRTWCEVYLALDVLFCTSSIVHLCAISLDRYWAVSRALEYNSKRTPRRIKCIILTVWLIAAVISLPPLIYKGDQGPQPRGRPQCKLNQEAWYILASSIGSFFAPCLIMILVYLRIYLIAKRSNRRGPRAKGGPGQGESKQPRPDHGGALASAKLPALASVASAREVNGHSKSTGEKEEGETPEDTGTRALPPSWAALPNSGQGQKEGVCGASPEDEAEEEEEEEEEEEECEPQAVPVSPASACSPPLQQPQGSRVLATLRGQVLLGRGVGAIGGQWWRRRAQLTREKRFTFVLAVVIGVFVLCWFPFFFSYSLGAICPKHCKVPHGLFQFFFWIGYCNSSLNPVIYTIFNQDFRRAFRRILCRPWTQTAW
- test description: Adrenergic α2B radioligand binding ([3H]Rauwolscine)
- conditions: compounds screened at 1 μM; read-out: Inhibition of ligand binding, Adren. alpha2B (percent inhibition of specific binding)

>  <compound>
CN1CCc2c(c3ncccc3n2CCc2ccccn2)C1 [Compound 484]

>  <inhibition at 1 µM>
30%

$$$$
>  <compound>
CN1CCc2c(c3cc(I)ccc3n2CC(=O)N2CCCCC2)C1 [Compound 486]

>  <inhibition at 1 µM>
7%

$$$$
>  <compound>
CN1CCc2c(c3ccncc3n2CCc2ccccn2)C1 [Compound 481]

>  <inhibition at 1 µM>
19%

$$$$
>  <compound>
Cc1ccc(CCn2c3c(c4cc(Br)ccc42)CN(C)CC3)cn1 [Compound 487]

>  <inhibition at 1 µM>
100%

$$$$
>  <compound>
CN1CCc2c(c3cc(F)ccc3n2CCc2nc(-c3ccccc3)cs2)C1 [Compound C1-7]

>  <inhibition at 1 µM>
113%

$$$$
>  <compound>
CN1CCc2c(c3cc(Cl)ccc3n2CCc2noc(-c3ccccc3)n2)C1 [Compound C4-6]

>  <inhibition at 1 µM>
94%

$$$$
>  <compound>
Cc1ccc2c(c1)c1c(n2CCc2noc(-c3ccccc3)n2)CCN(C)C1 [Compound C4-4]

>  <inhibition at 1 µM>
102%

$$$$
>  <compound>
CN1CCc2c(c3cc(Br)ccc3n2CC(=O)N2CCCCC2)C1 [Compound 516]

>  <inhibition at 1 µM>
21%

$$$$
>  <compound>
CN1CCc2c(c3ccccc3n2CCc2noc(-c3ccccc3)n2)C1 [Compound C4-1]

>  <inhibition at 1 µM>
94%

$$$$

* * *

- experimental target: human recombinant adrenergic α1D receptor (Homo sapiens)
- Construct: expressed in transfected cells; host or cells: HEK-293 cells
- test description: Adrenergic α1D radioligand binding ([3H]Prozosin)
- Parameters: concentration or dose not given beside the values
- conditions: percent inhibition of specific binding
In this section we review reported Inhibition of ligand binding, Adren. alpha1D values for a set of molecules.
measure: Inhibition of ligand binding, Adren. alpha1D (%)

>  <test smiles>
CN1CCc2c(c3cc(F)ccc3n2CCc2ccc(Cl)cc2)C1

>  <experimental target>
human recombinant adrenergic α1D receptor (Homo sapiens)

>  <unit descriptor>
%

>  <recorded result>
65

$$$$
>  <test smiles>
CCOC(=O)N1CCc2c(c3cc(Br)ccc3n2CCc2ccc(C)nc2)C1

>  <experimental target>
human recombinant adrenergic α1D receptor (Homo sapiens)

>  <unit descriptor>
%

>  <recorded result>
−10

$$$$
>  <test smiles>
Cc1ccc2c(c1)c1c(n2CCc2cnccn2)CCN(C)C1

>  <experimental target>
human recombinant adrenergic α1D receptor (Homo sapiens)

>  <unit descriptor>
%

>  <recorded result>
51

$$$$
>  <test smiles>
CCc1ccc2c(c1)c1c(n2CCc2cnc(C)nc2)CCN(C)C1

>  <experimental target>
human recombinant adrenergic α1D receptor (Homo sapiens)

>  <unit descriptor>
%

>  <recorded result>
76

$$$$
>  <test smiles>
CN1CCc2c(c3c(Cl)cccc3n2CCc2ccccc2)C1

>  <experimental target>
human recombinant adrenergic α1D receptor (Homo sapiens)

>  <unit descriptor>
%

>  <recorded result>
47

$$$$
>  <test smiles>
Cc1ccc2c(c1)c1c(n2CCc2ccc(C(C)C)nc2)CCN(C)C1

>  <experimental target>
human recombinant adrenergic α1D receptor (Homo sapiens)

>  <unit descriptor>
%

>  <recorded result>
96

$$$$
>  <test smiles>
Cc1ccc(CCn2c3c(c4cc(CO)ccc42)CN(C)CC3)cn1

>  <experimental target>
human recombinant adrenergic α1D receptor (Homo sapiens)

>  <unit descriptor>
%

>  <recorded result>
39

$$$$
>  <test smiles>
CCN1CCc2c(c3ccccc3n2CCc2ccncc2)C1

>  <experimental target>
human recombinant adrenergic α1D receptor (Homo sapiens)

>  <unit descriptor>
%

>  <recorded result>
21

$$$$
>  <test smiles>
Cc1ccc2c(c1)c1c(n2CCc2ccc(C)nc2)CCNC1

>  <experimental target>
human recombinant adrenergic α1D receptor (Homo sapiens)

>  <unit descriptor>
%

>  <recorded result>
75

$$$$

* * *

- experimental target: human recombinant histamine H2 receptor (Homo sapiens, UniProt P25021)
- Construct: expressed in transfected cells; host or cells: CHO-K1 cells
- Sequence (P25021 whole entry): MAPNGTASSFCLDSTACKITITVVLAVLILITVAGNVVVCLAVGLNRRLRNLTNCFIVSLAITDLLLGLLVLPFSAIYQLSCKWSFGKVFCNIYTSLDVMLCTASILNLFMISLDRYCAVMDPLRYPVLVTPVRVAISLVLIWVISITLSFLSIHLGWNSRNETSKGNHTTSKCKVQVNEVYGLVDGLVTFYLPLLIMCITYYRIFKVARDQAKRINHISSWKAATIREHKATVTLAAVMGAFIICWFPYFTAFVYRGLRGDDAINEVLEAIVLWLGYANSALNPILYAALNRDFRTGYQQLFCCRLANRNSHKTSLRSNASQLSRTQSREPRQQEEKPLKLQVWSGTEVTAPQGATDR
- test description: Histamine H2 radioligand binding ([125I]Aminopotentidine)
- conditions: percent inhibition of specific binding; screened at 1 μM; read-out: Inhibition of ligand binding, Hist. H2
measure: inhibition at 1 µM (%)

>  <test smiles>
Cc1ccc2c(c1)c1c(n2CCc2cnc(C)nc2)CCN(C)C1

>  <measure>
inhibition at 1 µM

>  <recorded result>
17

$$$$
>  <test smiles>
Cc1ccc2c(c1)c1c(n2CC(=O)N2CCOCC2)CCN(C)C1

>  <measure>
inhibition at 1 µM

>  <recorded result>
6

$$$$
>  <test smiles>
Cc1ccc2c(c1)c1c(n2CC(=O)N2CCC(C)CC2)CCN(C)C1

>  <measure>
inhibition at 1 µM

>  <recorded result>
21

$$$$
>  <test smiles>
CN1CCc2c(c3cccc(Cl)c3n2CCc2ccccc2)C1

>  <measure>
inhibition at 1 µM

>  <recorded result>
97

$$$$
>  <test smiles>
Cc1ccc2c(c1)c1c(n2CCC2CCCCC2)CCN(C)C1

>  <measure>
inhibition at 1 µM

>  <recorded result>
88

$$$$
>  <test smiles>
CN1CCc2c(c3cc(Cl)ccc3n2CCN2CCCCC2)C1

>  <measure>
inhibition at 1 µM

>  <recorded result>
87

$$$$
>  <test smiles>
CN1CCc2c(c3cc(Cl)c(F)cc3n2CCc2ccc(C(F)(F)F)nc2)C1

>  <measure>
inhibition at 1 µM

>  <recorded result>
29

$$$$
>  <test smiles>
CN1CCc2c(c3cc(Cl)ccc3n2CCC2CCCCC2)C1

>  <measure>
inhibition at 1 µM

>  <recorded result>
84

$$$$
>  <test smiles>
Cc1ccc2c(c1)c1c(n2CC(=O)N2CCCCC2)CCN(C)C1

>  <measure>
inhibition at 1 µM

>  <recorded result>
4

$$$$
